IC50 values for Aurora kinase A (Homo sapiens, UniProt O14965) compiled from several publications are listed below.
measurement_type: IC50 (µM)

| molecule | unit_text | IC50 |
| --- | --- | --- |
| Cc1cn2c(-c3cnn(CC(=O)NCc4ccco4)c3)cnc2c(Nc2cc(CN3CCCC(C)C3)ns2)n1 (centres undefined) | µM | 0.213 |

[P] CN(C)c1ccc(-c2nc3c(N4CCN(C(=O)Nc5ccccc5)CC4)c(Br)cnc3[nH]2)cc1
[Q] O=C(Nc1cc(CN2CCCC2)cc(C(F)(F)F)c1)Nc1ncc(CCNc2ncnc3ccsc23)s1
IN: From the items above, decide which of P and Q has the lower IC50 reading. Respond using the label that marks the chosen record.
OUT: Q
(Q: 0.004 µM, P: 0.277 µM)
